Ref: patent US4654326A

Tested on: TMV
Assay Details: Inhibition of TMV replication in intact N. glutinosa leaves (local lesion infectivity test)
Format: in vivo, tobacco mosaic virus
Stated Conditions: Tobacco mosaic virus, 48 h, read-out: Inhibition of TMV replication in N. glutinosa leaves
Listed here are compounds together with their documented inhibition at 1 µM.
Please reply with the bare figure in % and do not write the unit itself.

Nc1ncnc2c1ncn2[C@@H]1O[C@H](COP(=O)(O)O)C[C@H]1O [Cordycepin monophosphate, Cordycepin 5'-monophosphate]; 0
Nc1ncnc2c1ncn2[C@@H]1O[C@H](COP(=O)(O)O)[C@@H](O)[C@@H]1O [Ara-AMP]; 0
OC[C@H]1O[C@@H](n2cnc3c(O)ncnc32)[C@H](O)[C@@H]1O [Inosine, inosine]; 0

Supply measured inhibition at 1 µM of Nc1ncnc2c1ncn2[C@@H]1O[C@H](CO)[C@@H](O)[C@@H]1O [Ara-a] in your reply.
0

Supply measured inhibition at 1 µM of Nc1ncnc2c1ccn2[C@@H]1O[C@H](COP(=O)(O)O)[C@@H](O)[C@H]1O [TuMP, tubercidin 5'-monophosphate] in your reply.
0

----------
System: TMV
Assay Details: Inhibition of TMV replication in tobacco protoplasts (homogenates assayed for local lesions)
Assay type: cell-based, tobacco mosaic virus
Stated Conditions: Tobacco mosaic virus, read-out: Inhibition of TMV replication after 48 hr; 1 × 10^-7 M, added within 3 hours of infection; average of four experiments
Endpoint Name: inhibition at 0.1 µM (%)
Please reply with the bare figure in % and do not write the unit itself.

// worked examples, inhibition at 0.1 µM included
Nc1ncnc2c1ncn2[C@@H]1O[C@H](COP(=O)(O)O)[C@@H](O)[C@H]1O; 33
Nc1ncnc2c1ncn2[C@@H]1O[C@H](CO)[C@@H](O)[C@H]1O; 0
OC[C@H]1O[C@@H](n2cnc3c(O)ncnc32)[C@H](O)[C@@H]1O; 22

Okay, now this compound:
Supply measured inhibition at 0.1 µM of Nc1ncnc2c1ncn2[C@@H]1O[C@H](CO)C[C@H]1O [Cordycepin, cordycepin] in your reply.
21

----------
Listed here are compounds together with their documented inhibition at 1 µM.
Test system: TMV
Assay Details: Inhibition of TMV replication in intact N. glutinosa leaves (local lesion infectivity test)
Assay type: in vivo, tobacco mosaic virus
Stated Conditions: Tobacco mosaic virus, 48 h, read-out: Inhibition of TMV replication in N. glutinosa leaves
Please reply with the bare figure in % and do not write the unit itself.

// worked examples, inhibition at 1 µM included
Nc1ncnc2c1ncn2[C@@H]1O[C@H](CO)C[C@H]1O [Cordycepin, cordycepin]; 0
Nc1ncnc2c1ccn2[C@@H]1O[C@H](CO)[C@@H](O)[C@H]1O [Tubercidin, tubercidin]; 0
Nc1ncnc2c1ncn2[C@@H]1O[C@H](COP(=O)(O)O)[C@@H](O)[C@H]1O [AMP]; 10

Supply measured inhibition at 1 µM of Nc1ncnc2c1ncn2[C@@H]1O[C@H](CO)[C@@H](O)[C@H]1O [Adenosine, adenosine] in your reply.
0
